Data origin: the supplement of paper PMC8728848

Test target: Neu5Ac(a2-6)Gal(b1-4)GlcNAc(b1-2)Man(a1-3)[Neu5Ac(a2-6)Gal(b1-4)GlcNAc(b1-2)Man(a1-6)]Man(b1-4)GlcNAc(b1-4)GlcNAc
Protocol notes: glycan array binding signal (z-score within array); higher = stronger binding
Reported conditions: glycan notation: IUPAC condensed, linker removed
Only a selection was taken, and the strongest signals are over-represented in it overall.
The entries below come with measured glycan array binding signal (z-score) values attached.

[
  {
    "Binder": "PEB3 (Campylobacter jejuni), Q0PBL7 (protein) MKKIITLFGACALAFSMANADVNLYGPGGPHTALKDIANKYSEKTGVKVNVNFGPQATWFEKAKKDADILFGASDQSALAIASDFGKDFNVSKIKPLYFREAIILTQKGNPLKIKGLKDLANKKVRIVVPEGAGKSNTSGTGVWEDMIGRTQDIKTIQNFRNNIVAFVPNSGSARKLFAQDQADAWITWIDWSKSNPDIGTAVAIEKDLVVYRTFNVIAKEGASKETQDFIAYLSSKEAKEIFKKYGWRE",
    "glycan array binding signal (z-score)": 0.39
  },
  {
    "Binder": "FimD (Bordetella pertussis) (protein) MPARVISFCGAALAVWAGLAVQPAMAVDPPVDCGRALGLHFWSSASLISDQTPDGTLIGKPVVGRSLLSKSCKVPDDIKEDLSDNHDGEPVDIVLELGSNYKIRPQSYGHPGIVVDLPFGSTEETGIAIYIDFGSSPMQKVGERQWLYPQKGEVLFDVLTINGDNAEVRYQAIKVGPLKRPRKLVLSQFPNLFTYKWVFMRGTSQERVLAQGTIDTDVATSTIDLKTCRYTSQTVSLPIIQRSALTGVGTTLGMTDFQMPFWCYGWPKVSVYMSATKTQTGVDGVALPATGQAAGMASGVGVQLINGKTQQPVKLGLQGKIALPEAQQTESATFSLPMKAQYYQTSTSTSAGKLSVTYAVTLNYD",
    "glycan array binding signal (z-score)": 0.115
  }
]
